system: VSVg pseudotyped virus; assay: organism not typed; format: cell-based; settings: read-out: Activity (EC50 in μM vs. pseudotyped virus) VSVg
Structures can show the parent of a compound that is named as a salt.
quantity_measured: EC50

| compound | quantity_measured | experimental_result |
| --- | --- | --- |
| CCc1ccc(/C=C\c2ccc3c(c2)ncn3-c2ccc(OC(C)C)cc2)cc1 | EC50 | 10 to 50 µM |
| CC(C)(C)Oc1ccc(-n2cnc3cc(/C=C\c4ccc(C(C)(C)C)cc4)ccc32)cc1 | EC50 | 10 to 50 µM |
| CC(C)Oc1ccc(-n2cnc3cc(/C=C\c4ccc(C5(N)CC5)cc4)ccc32)cc1 | EC50 | 10 to 50 µM |
| COc1ccc(-n2cnc3cc(OCc4ccc(C(C)C)cc4)cnc32)cc1 | EC50 | 10 to 50 µM |
| CCOc1ccc(-n2cnc3cc(/C=C\c4ccc(C(C)(C)C)cc4)ccc32)nc1 [Compound 21, hydrochloride] | EC50 | 10 to 50 µM |
| CCOc1ccc(-n2cnc3cc(CCc4ccc(CC)cc4)ccc32)cc1 | EC50 | > 50 µM |
| CC(C)Oc1ccc(-n2cnc3cc(/C=C\c4ccc(C(O)(C(F)(F)F)C(F)(F)F)cc4)ccc32)cc1 | EC50 | 1 to 10 µM |
| CCOc1ccc(-c2cnc3cc(NCc4ccc(CC)cc4)ccn23)cc1 | EC50 | 1 to 10 µM |
| CC(C)Oc1ccc(-n2cnc3cc(/C=C\c4ccc(C5(O)CCCCC5)cc4)ccc32)cc1 | EC50 | 1 to 10 µM |
| CCOc1ccc(-n2cnc3cc(OCc4ccc(CC)cc4)ccc32)cc1 | EC50 | 10 to 50 µM |
| CCc1ccc(/C=C\c2ccc3c(c2)ncn3-c2ccc(OC(C)(C)C)cc2)cc1 | EC50 | 10 to 50 µM |
| CCOc1ccc(-n2cnc3cc(/C=C\c4ccc(OC(F)(F)F)cc4)ccc32)cc1 | EC50 | 10 to 50 µM |
| CCCCC(O)(CCCC)c1ccc(/C=C\c2ccc3c(c2)ncn3-c2ccc(OC(C)C)cc2)cc1 | EC50 | 10 to 50 µM |
| CC(C)(C)Oc1ccc(-n2cnc3cc(/C=C/c4ccc(C(C)(C)C)cc4)ccc32)cc1 | EC50 | 10 to 50 µM |
| CCOc1ccc(Cn2cnc3cc(NCc4ccc(CC)cc4)cnc32)cc1 | EC50 | 1 to 10 µM |
| CC(C)Oc1ccc(-n2cnc3cc(/C=C\c4ccc(C(C)(C)N)cc4)ccc32)cc1 | EC50 | > 50 µM |
| CC(C)Oc1ccc(-n2cnc3cc(/C=C\c4ccc(C5(O)CC5)cc4)ccc32)cc1 | EC50 | 10 to 50 µM |
| CC(C)Oc1ccc(-n2cnc3cc(/C=C\c4ccc(C(C)(C)O)cc4)ccc32)nc1 | EC50 | 1 to 10 µM |
| C=C(C)c1ccc(/C=C\c2ccc3c(c2)ncn3-c2ccc(OC(C)C)cc2)cc1 | EC50 | 10 to 50 µM |
| CC(C)Oc1ccc(-n2cnc3cc(C4CC4c4ccc(C(C)(C)C)cc4)ccc32)cc1 (stereo not shown) | EC50 | 10 to 50 µM |
| CCOc1ccc(-n2cnc3cc(/C=C/c4ccc(CC)cc4)ccc32)nc1 [Compound 18, hydrochloride] | EC50 | 10 to 50 µM |
| CC(C)Oc1ccc(-n2cnc3cc(/C=C\c4ccc(C5(O)CCCC5)cc4)ccc32)cc1 | EC50 | 1 to 10 µM |
| CCOc1ccc(-n2cnc3cc(/C=C/c4ccc(CC)cc4)ccc32)cc1 | EC50 | 10 to 50 µM |
| CCOc1ccc(-n2ccc3cc(NCc4ccc(CC)cc4)cnc32)cc1 | EC50 | > 50 µM |
| CC(C)Oc1ccc(-n2cnc3cc(/C=C\c4ccc(C(C)(C)C)cc4)ccc32)cc1 | EC50 | 10 to 50 µM |
| CCOc1ccc(-n2ccc3cc(NCc4ccc(CC)cc4)ccc32)cc1 | EC50 | 10 to 50 µM |
| CC(C)Oc1ccc(-n2cnc3cc(/C=C\c4ccc(C5(O)CNC5)cc4)ccc32)cc1 | EC50 | 10 to 50 µM |
| CCOc1ccc(-n2cnc3cc(/C=C\c4ccc(C(F)(F)F)cc4)ccc32)cc1 | EC50 | 10 to 50 µM |
